The reported measurements were obtained from patent US9656962B2.

target: UniProtKB P35372; test: μ-opioid receptor [35S]GTPγS functional assay, HEK-293 cells (Table 6); format: biochemical; conditions: μ GTP
For each record, write down the corresponding pEC50.
One number for each entry, as −log10 of the molar value.

Examples with answers:
[[record]]
compound = "O=C([C@H]1C[C@]23CCN(CC4CC4)[C@H](Cc4ccc(O)cc42)[C@]3(O)C1)N1CCN(c2ccccc2)CC1 [Compound 96]"
readout_kind = "pEC50"
endpoint_result = 7.84

[[record]]
compound = "CN1CC[C@]23C[C@H](C(=O)NCCO)C[C@@]2(O)[C@H]1Cc1ccc(O)cc13 [Compound 115]"
readout_kind = "pEC50"
endpoint_result = 6.04

[[record]]
compound = "CN1CC[C@]23C[C@H](C(=O)NCc4ccc(Cl)c(Cl)c4)C[C@@]2(O)[C@H]1Cc1ccc(O)cc13 [Compound 101]"
readout_kind = "pEC50"
endpoint_result = 8.80

[[record]]
compound = "CN1CC[C@]23C[C@@H](C(=O)N4CCOCC4)C[C@@]2(O)[C@H]1Cc1ccc(O)cc13 [Compound 111]"
readout_kind = "pEC50"
endpoint_result = 5.50

[[record]]
compound = "CC(C)CNC(=O)[C@H]1C[C@]23CCN(C)[C@H](Cc4ccc(O)cc42)[C@]3(O)C1 [Compound 102]"
readout_kind = "pEC50"
endpoint_result = 6.18


Moving on to another compound below.
Lookup: Fill blank: measured pEC50 of the compound O=C(NCc1cccc(O)c1O)[C@H]1C[C@]23CCN(CC4CC4)[C@H](Cc4ccc(O)cc42)[C@]3(O)C1 [Compound 141] is ____.
Found: 8.93
